Target: EeAChE (Electrophorus electricus, UniProt O42275)
Sequence (O42275 24-633): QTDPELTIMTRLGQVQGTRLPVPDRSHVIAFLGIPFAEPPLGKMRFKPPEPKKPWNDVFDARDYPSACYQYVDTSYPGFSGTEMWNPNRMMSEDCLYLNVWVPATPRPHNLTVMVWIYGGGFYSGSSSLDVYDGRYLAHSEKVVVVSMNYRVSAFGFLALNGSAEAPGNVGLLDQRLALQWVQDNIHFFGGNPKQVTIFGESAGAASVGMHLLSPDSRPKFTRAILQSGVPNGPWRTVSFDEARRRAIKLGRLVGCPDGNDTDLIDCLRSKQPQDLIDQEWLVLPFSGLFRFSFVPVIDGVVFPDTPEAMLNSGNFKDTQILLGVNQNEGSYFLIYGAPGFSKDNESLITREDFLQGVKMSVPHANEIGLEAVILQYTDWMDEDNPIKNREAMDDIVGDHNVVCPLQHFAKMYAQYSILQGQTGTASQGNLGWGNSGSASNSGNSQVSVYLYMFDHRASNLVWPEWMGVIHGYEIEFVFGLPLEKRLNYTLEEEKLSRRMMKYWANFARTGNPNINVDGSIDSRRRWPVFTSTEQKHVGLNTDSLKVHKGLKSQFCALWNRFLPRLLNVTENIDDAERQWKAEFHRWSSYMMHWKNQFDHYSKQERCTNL
Test: AChE inhibition assay
Format: biochemical
assay_readout: IC50 (µM)
Your answer is read as µM, so omit the unit and give the number.

A selection of reference data follows.
[H]/N=C(/N)NN=C(/C=C/c1ccc(Cl)cc1Cl)c1cccn1Cc1ccccc1 [Compound 1d]	55.4
[H]/N=C(/N)NN=C(/C=C/c1ccccc1)c1cccn1Cc1ccc(C(C)C)cc1 [Compound 2r]	50.4
[H]/N=C(/N)NN=C(/C=C/c1ccc(C(C)(C)C)cc1)c1cccn1Cc1ccc(-c2ccccc2)cc1 [Compound 3g]	76.1
[H]/N=C(/N)NN=C(/C=C/c1ccccc1F)c1cccn1Cc1ccccc1 [Compound 1e]	172
[H]/N=C(/N)NN=C(/C=C/c1ccc(C(C)(C)C)cc1)c1cccn1Cc1ccc(C(C)(C)C)cc1 [Compound 3k]	48.1

query: Value lookup for IC50; key = [H]/N=C(/N)NN=C(/C=C/c1ccccc1)c1cccn1Cc1cc(Cl)ccc1Cl [Compound 2e]
result: 75.6

Reference for the values: paper PMC11341970
